test system: MDA-MB-435 S (Breast); assay: NCI60 panel IC50; type: cell-based; conditions: Homo sapiens
experimental_readout: IC50

Lookup: State the recorded IC50 for this entry: CN1CCCNc2c(c(=O)c2=O)NCCCN(C)CCCNc2c(c(=O)c2=O)NCCCN(C)CCCNc2c(c(=O)c2=O)NCCCN(C)CCCNc2c(c(=O)c2=O)NCCCN(C)CCCNc2c(c(=O)c2=O)NCCC1 [Compound 10]
Found: 3.66 µM

----------
tested on: SF-268 (CNS); test: NCI60 panel IC50; assay type: cell-based; settings: Homo sapiens, 2 experiments in triplicate
experimental_readout: IC50 (µM)
One number for each entry, in µM.

Lookup: State its IC50 on SF-268 (CNS): CN1CCCNc2c(c(=O)c2=O)NCCCN(C)CCCNc2c(c(=O)c2=O)NCCCN(C)CCCNc2c(c(=O)c2=O)NCCCN(C)CCCNc2c(c(=O)c2=O)NCCCN(C)CCCNc2c(c(=O)c2=O)NCCC1
Found: 5.61

----------
test system: DU-145 (Prostate); assay: NCI60 panel IC50; assay type: cell-based; conditions: Homo sapiens
experimental_readout: pIC50
Give bare numbers, as −log10 of the molar value.

Lookup: State the recorded pIC50 for this entry: CN1CCCNc2c(c(=O)c2=O)NCCCN(C)CCCNc2c(c(=O)c2=O)NCCCN(C)CCCNc2c(c(=O)c2=O)NCCCN(C)CCCNc2c(c(=O)c2=O)NCCCN(C)CCCNc2c(c(=O)c2=O)NCCC1 [Compound 10]
Found: 5.74

----------
tested on: SF539 (Astrocytoma); assay: NCI60 panel IC50; type: cell-based; details: Homo sapiens, SF-539
experimental_readout: IC50 (µM)
Numbers only, in µM.

Lookup: State its IC50 on SF539 (Astrocytoma): CN1CCCNc2c(c(=O)c2=O)NCCCN(C)CCCNc2c(c(=O)c2=O)NCCCN(C)CCCNc2c(c(=O)c2=O)NCCCN(C)CCCNc2c(c(=O)c2=O)NCCCN(C)CCCNc2c(c(=O)c2=O)NCCC1
Found: 3.52

----------
System: HT-29 (Colon)
Assay: NCI60 panel IC50
Format: cell-based, human
Conditions: Homo sapiens; HT-29 (Colon); NCI60 panel; highest concentration 1E-05 M
Protocol: On the other hand, the values of IC50 were determined in the panel of NCl60 cell lines for compound 10. A total of 2 independent experiments were carried out with assays in triplicate for the compound and cell line. All those assays where an IC50 value was not reached in the highest concentration of 1E-05 M are represented by “>1E-05”. In these cases, the standard deviation cannot be calculated and for that reason it is calculated as “-”.
pIC50: −log10 of the molar value.
experimental_readout: pIC50

Lookup: State its pIC50 on HT-29 (Colon): CN1CCCNc2c(c(=O)c2=O)NCCCN(C)CCCNc2c(c(=O)c2=O)NCCCN(C)CCCNc2c(c(=O)c2=O)NCCCN(C)CCCNc2c(c(=O)c2=O)NCCCN(C)CCCNc2c(c(=O)c2=O)NCCC1
Found: < 5.00

----------
molecular target: PLK1 (Homo sapiens); experiment: in vitro kinase assay; format: biochemical
Sequence (P53350 whole entry): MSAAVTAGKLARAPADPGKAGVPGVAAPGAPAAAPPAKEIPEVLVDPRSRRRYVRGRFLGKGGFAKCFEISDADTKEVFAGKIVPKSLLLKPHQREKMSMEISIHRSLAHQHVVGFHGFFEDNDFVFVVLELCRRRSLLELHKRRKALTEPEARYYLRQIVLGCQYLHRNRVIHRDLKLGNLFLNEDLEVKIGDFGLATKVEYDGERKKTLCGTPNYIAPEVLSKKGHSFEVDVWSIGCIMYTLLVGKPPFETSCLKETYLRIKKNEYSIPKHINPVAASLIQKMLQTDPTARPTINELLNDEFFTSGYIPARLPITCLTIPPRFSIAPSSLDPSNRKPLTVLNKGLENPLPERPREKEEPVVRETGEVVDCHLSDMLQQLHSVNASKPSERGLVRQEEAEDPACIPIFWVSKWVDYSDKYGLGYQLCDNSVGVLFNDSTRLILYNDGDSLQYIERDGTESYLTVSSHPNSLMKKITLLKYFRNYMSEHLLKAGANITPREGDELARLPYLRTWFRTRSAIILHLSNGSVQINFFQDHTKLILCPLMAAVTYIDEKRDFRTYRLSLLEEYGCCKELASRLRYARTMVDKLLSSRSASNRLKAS
experimental_readout: IC50 (µM)
Numbers only, in µM.

Lookup: State the recorded IC50 for this entry: CN1CCCNc2c(c(=O)c2=O)NCCCN(C)CCCNc2c(c(=O)c2=O)NCCCN(C)CCCNc2c(c(=O)c2=O)NCCCN(C)CCCNc2c(c(=O)c2=O)NCCCN(C)CCCNc2c(c(=O)c2=O)NCCC1 [Compound 10]
Found: 26

----------
tested on: MDA-MB-468 (Breast); assay: NCI60 panel IC50; format: cell-based; conditions: Homo sapiens
experimental_readout: pIC50
Numbers only, as −log10 of the molar value.

Lookup: State the recorded pIC50 for this entry: CN1CCCNc2c(c(=O)c2=O)NCCCN(C)CCCNc2c(c(=O)c2=O)NCCCN(C)CCCNc2c(c(=O)c2=O)NCCCN(C)CCCNc2c(c(=O)c2=O)NCCCN(C)CCCNc2c(c(=O)c2=O)NCCC1
Found: 5.63

----------
system: Jeko-1; assay: cell viability assay; format: cell-based, human; details: cell viability, total incubation period 48 h; read-out: IC50 (μM) against Jeko-1 cells
experimental_readout: IC50 (µM)
Answers are plain numbers, in µM.

* CN1CCCNc2c(c(=O)c2=O)NCCCN(C)CCCNc2c(c(=O)c2=O)NCCCN(C)CCCNc2c(c(=O)c2=O)NCCCN(C)CCCNc2c(c(=O)c2=O)NCCCN(C)CCCNc2c(c(=O)c2=O)NCCCN(C)CCCNc2c(c(=O)c2=O)NCCC1 [Compound 5] | 50

Here are 3 compounds. What values of IC50 were reported for them?
1. CN1CCCNc2c(c(=O)c2=O)NCCCN(C)CCCNc2c(c(=O)c2=O)NCCCN(C)CCCNc2c(c(=O)c2=O)NCCCN(C)CCCNc2c(c(=O)c2=O)NCCCN(C)CCCNc2c(c(=O)c2=O)NCCCN(C)CCCNc2c(c(=O)c2=O)NCCC1 [Compound 11]
2. CN1CCCNc2c(c(=O)c2=O)NCCCN(C)CCCNc2c(c(=O)c2=O)NCCCN(C)CCCNc2c(c(=O)c2=O)NCCCN(C)CCCNc2c(c(=O)c2=O)NCCCN(C)CCCNc2c(c(=O)c2=O)NCCCN(C)CCCNc2c(c(=O)c2=O)NCCC1 [Compound 2]
3. CN1CCCNc2c(c(=O)c2=O)NCCCN(C)CCCNc2c(c(=O)c2=O)NCCCN(C)CCCNc2c(c(=O)c2=O)NCCCN(C)CCCNc2c(c(=O)c2=O)NCCCN(C)CCCNc2c(c(=O)c2=O)NCCCN(C)CCCNc2c(c(=O)c2=O)NCCC1 [Compound 1]

Found:
[9.4, 45, 27]

----------
tested on: SK-MEL-5 (Melanoma); assay: NCI60 panel IC50; type: cell-based; conditions: Homo sapiens
experimental_readout: IC50

Lookup: State the recorded IC50 for this entry: CN1CCCNc2c(c(=O)c2=O)NCCCN(C)CCCNc2c(c(=O)c2=O)NCCCN(C)CCCNc2c(c(=O)c2=O)NCCCN(C)CCCNc2c(c(=O)c2=O)NCCCN(C)CCCNc2c(c(=O)c2=O)NCCC1
Found: 2750 nM

----------
tested on: OVCAR-3 (Ovarian); experiment: NCI60 panel IC50; format: cell-based; details: Homo sapiens
experimental_readout: pIC50
Answers are plain numbers, as −log10 of the molar value.

Lookup: State the recorded pIC50 for this entry: CN1CCCNc2c(c(=O)c2=O)NCCCN(C)CCCNc2c(c(=O)c2=O)NCCCN(C)CCCNc2c(c(=O)c2=O)NCCCN(C)CCCNc2c(c(=O)c2=O)NCCCN(C)CCCNc2c(c(=O)c2=O)NCCC1
Found: 5.29

----------
test system: SK-OV-3 (Ovarian); assay: NCI60 panel IC50; format: cell-based; details: Homo sapiens
experimental_readout: pIC50
Answers are plain numbers, as −log10 of the molar value.

Lookup: State the recorded pIC50 for this entry: CN1CCCNc2c(c(=O)c2=O)NCCCN(C)CCCNc2c(c(=O)c2=O)NCCCN(C)CCCNc2c(c(=O)c2=O)NCCCN(C)CCCNc2c(c(=O)c2=O)NCCCN(C)CCCNc2c(c(=O)c2=O)NCCC1
Found: 5.51

----------
target: CDK5/p25NCK (Homo sapiens, UniProt Q00535); assay: in vitro kinase assay; details: kinase CDK5/p25NCK, in vitro
Sequence (Q00535 whole entry): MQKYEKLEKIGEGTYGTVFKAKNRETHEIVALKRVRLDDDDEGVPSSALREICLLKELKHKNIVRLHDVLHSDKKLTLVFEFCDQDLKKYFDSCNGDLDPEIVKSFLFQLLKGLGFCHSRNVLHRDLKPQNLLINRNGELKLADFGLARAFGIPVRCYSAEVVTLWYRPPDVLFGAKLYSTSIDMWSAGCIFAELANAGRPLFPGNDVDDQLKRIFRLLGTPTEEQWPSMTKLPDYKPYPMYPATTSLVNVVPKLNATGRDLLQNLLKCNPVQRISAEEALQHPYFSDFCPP
Sequence (Q15078 99-307 partner limits assumed): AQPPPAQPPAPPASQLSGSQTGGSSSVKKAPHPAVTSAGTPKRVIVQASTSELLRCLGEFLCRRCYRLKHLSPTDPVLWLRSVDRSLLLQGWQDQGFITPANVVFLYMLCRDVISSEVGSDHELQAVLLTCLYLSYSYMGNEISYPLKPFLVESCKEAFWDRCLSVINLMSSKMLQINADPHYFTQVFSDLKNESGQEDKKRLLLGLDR
experimental_readout: IC50 (µM)
One number for each entry, in µM.

Lookup: State its IC50 on CDK5/p25NCK (Homo sapiens, UniProt Q00535): CN1CCCNc2c(c(=O)c2=O)NCCCN(C)CCCNc2c(c(=O)c2=O)NCCCN(C)CCCNc2c(c(=O)c2=O)NCCCN(C)CCCNc2c(c(=O)c2=O)NCCCN(C)CCCNc2c(c(=O)c2=O)NCCC1
Found: 9.2

----------
molecular target: FGF-R1 VM (Homo sapiens, UniProt P11362, V561M); assay: in vitro kinase assay
Sequence (P11362 402-822 V561M limits assumed): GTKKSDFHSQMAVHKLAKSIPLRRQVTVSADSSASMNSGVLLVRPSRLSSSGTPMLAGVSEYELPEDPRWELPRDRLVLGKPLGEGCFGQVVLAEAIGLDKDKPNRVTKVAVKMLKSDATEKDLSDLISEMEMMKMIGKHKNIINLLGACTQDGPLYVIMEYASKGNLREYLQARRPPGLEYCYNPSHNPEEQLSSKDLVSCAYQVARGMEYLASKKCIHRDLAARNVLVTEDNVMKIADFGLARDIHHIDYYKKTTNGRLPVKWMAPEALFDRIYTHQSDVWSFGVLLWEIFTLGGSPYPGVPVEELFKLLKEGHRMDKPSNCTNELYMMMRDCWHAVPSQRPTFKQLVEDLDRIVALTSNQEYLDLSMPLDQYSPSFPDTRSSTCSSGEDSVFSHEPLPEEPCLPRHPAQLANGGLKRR
experimental_readout: IC50 (µM)
Numbers only, in µM.

Lookup: State the recorded IC50 for this entry: CN1CCCNc2c(c(=O)c2=O)NCCCN(C)CCCNc2c(c(=O)c2=O)NCCCN(C)CCCNc2c(c(=O)c2=O)NCCCN(C)CCCNc2c(c(=O)c2=O)NCCCN(C)CCCNc2c(c(=O)c2=O)NCCC1
Found: 2.6

----------
tested on: SK-MEL-2 (Melanoma); assay: NCI60 panel IC50; assay type: cell-based; conditions: Homo sapiens
experimental_readout: IC50 (µM)
Numbers only, in µM.

Lookup: State the recorded IC50 for this entry: CN1CCCNc2c(c(=O)c2=O)NCCCN(C)CCCNc2c(c(=O)c2=O)NCCCN(C)CCCNc2c(c(=O)c2=O)NCCCN(C)CCCNc2c(c(=O)c2=O)NCCCN(C)CCCNc2c(c(=O)c2=O)NCCC1 [Compound 10]
Found: 3.29
